biological target: HLA-DR DRB3*0101 (human); assay: competition with 125I probe, purified MHC II
Assay readout: IC50 (nM)
# output: bare number, implied unit nM

Record summary for DTPYLDITYHFVMQRLPL [Torp. Ach Rec. 195-212] : reported IC50 = 800
